# SYSTEM_NAME: T1, human CD98, endogenously expressed on Molt-4 human acute lymphoblastic leukemia cells (human)
# T1 chain: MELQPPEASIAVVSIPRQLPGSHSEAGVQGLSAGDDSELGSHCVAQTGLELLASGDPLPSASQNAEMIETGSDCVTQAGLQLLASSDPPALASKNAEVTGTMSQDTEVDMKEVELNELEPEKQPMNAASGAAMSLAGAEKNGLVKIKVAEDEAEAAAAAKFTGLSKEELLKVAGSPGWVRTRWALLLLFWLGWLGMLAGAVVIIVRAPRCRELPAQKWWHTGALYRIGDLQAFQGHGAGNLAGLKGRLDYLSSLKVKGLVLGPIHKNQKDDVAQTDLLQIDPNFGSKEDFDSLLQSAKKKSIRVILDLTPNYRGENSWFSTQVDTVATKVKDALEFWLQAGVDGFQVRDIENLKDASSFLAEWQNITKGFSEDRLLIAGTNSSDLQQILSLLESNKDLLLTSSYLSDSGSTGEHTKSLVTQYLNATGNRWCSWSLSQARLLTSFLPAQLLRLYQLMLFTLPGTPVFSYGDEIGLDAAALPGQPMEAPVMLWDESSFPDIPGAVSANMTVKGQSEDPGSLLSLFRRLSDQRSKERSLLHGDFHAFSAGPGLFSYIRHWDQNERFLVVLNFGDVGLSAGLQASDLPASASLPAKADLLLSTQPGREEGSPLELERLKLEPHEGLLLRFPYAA
# ASSAY_INFO: cell-based or functional assay
QUANTITY_MEASURED: % Cell Viability at 50 nM
Be sure to follow the number with its unit.

% Cell Viability at 50 nM reading for CD98 (CL-huAb110)-TX (antibody, human IgG1, kappa, L234A L235A, V domains shown, synthon TX on reduced interchain cysteines (sites not given)) VH: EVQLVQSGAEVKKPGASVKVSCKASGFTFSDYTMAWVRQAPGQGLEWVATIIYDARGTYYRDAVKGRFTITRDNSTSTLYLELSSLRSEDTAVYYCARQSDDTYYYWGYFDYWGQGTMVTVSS VL: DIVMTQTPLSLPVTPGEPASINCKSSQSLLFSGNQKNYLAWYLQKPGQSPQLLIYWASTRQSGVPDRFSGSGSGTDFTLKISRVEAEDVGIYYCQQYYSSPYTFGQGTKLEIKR : 2.5%

% Cell Viability at 50 nM reading for CD98 (CL-huAb108)-AAA (antibody, human IgG1, kappa, L234A L235A, V domains shown, synthon AAA on reduced interchain cysteines (sites not given)) VH: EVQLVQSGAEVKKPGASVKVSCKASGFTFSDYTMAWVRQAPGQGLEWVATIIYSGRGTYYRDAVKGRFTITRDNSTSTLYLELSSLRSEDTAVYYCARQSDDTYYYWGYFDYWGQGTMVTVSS VL: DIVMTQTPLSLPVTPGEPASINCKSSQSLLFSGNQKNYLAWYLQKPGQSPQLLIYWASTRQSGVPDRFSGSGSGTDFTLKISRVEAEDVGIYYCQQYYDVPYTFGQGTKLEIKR : 2.9%
